Sourced from the OligoGym collection

Measured target mRNA inhibition by item
Biological target: ANGPTL2
Conditions: ASO, 25 µM
After the bases stand the sugars from the 5' end (letter, count) and the backbone: PS all phosphorothioate, else s phosphorothioate and o phosphodiester by linkage. Methylation of C is not given here. l = locked nucleic acid (LNA); d = 2'-deoxy (DNA)
Give your result in % as a bare value.

1. ACCCTCCATCCTTCACC (sugars l2 d13 l2, PS)	54.5
2. TCCGGTAATGGCCCC (sugars l1 d12 l2, PS)	51.8
3. GTTCGTCAGCCAGTAA (sugars l2 d11 l3, PS)	75.5
4. CCATTTTGAGATTCCCCCAA (sugars l3 d15 l2, PS)	43.9
5. CAGGCCAACACTAACTC (sugars l1 d12 l4, PS)	82.5

Request: If you can, please state the reported target mRNA inhibition value of ATGGTGGTTATTCTTTGTGA (sugars l1 d17 l2, PS) .
Result: 35.7

###

Molecular target: IRF5
Conditions: ASO, KARPAS-229, 12 µM
After the bases stand the sugars from the 5' end (letter, count) and the backbone: PS all phosphorothioate, else s phosphorothioate and o phosphodiester by linkage. Methylation of C is not given here. e = 2'-O-(2-methoxyethyl) (MOE); k = constrained ethyl (cEt); d = 2'-deoxy (DNA)
Tag: condition met if measured target mRNA inhibition is not below 70%, condition not met if it is.

1. GGTTCTTGGACTCTCA (sugars k2 d8 e4 k2, PS)	condition met
2. TTATTTCTGCTCCAGG (sugars k3 d10 k3, PS)	condition met
3. GTGACTGTATTACCTA (sugars k3 d10 k3, PS)	condition met
4. GTGAGTCTCAAACCAG (sugars k3 d9 k3 e1, PS)	condition not met

Request: Please indicate if the recorded target mRNA inhibition for AGCTTGGTCTTGACCT (sugars k3 d10 k3, PS) meets or exceeds 70%.
Result: condition not met

Request: Hello, I need to know if GTGAGACGAGCAAAGG (sugars k3 d10 k3, PS) has measured target mRNA inhibition not below 70%. Thanks!
Result: condition met

Request: Exam item: decide whether the reported target mRNA inhibition for GTCTTGACCTCCCGCT (sugars k2 d9 e3 k2, PS) is at least 70%.
Result: condition not met

Request: Is the recorded value of target mRNA inhibition equal to or greater than 70% for this sequence? CCAATTTTGCATTCCA (sugars k3 d10 k3, PS)
Result: condition met

Request: State whether the measured target mRNA inhibition reaches 70%, counting equality as reaching it, for GGTTCTTGGACTCTCA (sugars k2 d9 e3 k2, PS)
Result: condition met

Request: Form field: target mRNA inhibition at least 70%? Entry: CCATTCTATGCCTTTT (sugars kkddddddddddkeke, PS)
Result: condition met

Request: Decide: target mRNA inhibition of TGAATTTTGTGACTGT (sugars k3 d10 k3, PS) >= 70%?
Result: condition met

###

Target: KRAS
Conditions: ASO, A431, 5 µM
After the bases stand the sugars from the 5' end (letter, count) and the backbone: PS all phosphorothioate, else s phosphorothioate and o phosphodiester by linkage. Methylation of C is not given here. k = constrained ethyl (cEt); d = 2'-deoxy (DNA)
Label YES when target mRNA inhibition >= 70%; otherwise NO.

Known results for sequences:
1) AGGAGTCTTTATAGTA (sugars k3 d10 k3, PS)	YES
2) GTGTTTATGCAATGTT (sugars kkkddddddddkdkdk, PS)	YES

Now consider the entry below.
Request: Threshold query (target mRNA inhibition >= 70%) on AGCTTGATCGAAGAGT (sugars k3 d10 k3, PS)
Result: NO
